Reference for the values: the MegaScale stability set (Tsuboyama et al. 2023)

B1: r11_951_TrROS_Hall (parent)
chain: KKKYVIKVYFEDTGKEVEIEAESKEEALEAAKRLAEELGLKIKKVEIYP

variants of: B1; assay: folding stability dG (cDNA display proteolysis); higher = more stable; conditions: PBS, room temperature
folding stability dG: recorded values
Express it in kcal/mol; write the number only.

• D12W = 4.75
• Y9K = 3.98
• E37R = 4.69
• E37H = 4.72
• K1N = 4.47
• E37T = 4.61
• K15G = 4.19
• L34T = 4.25
• K2T = 4.46
• G14W = 4.61

Which folding stability dG is reported for this variant? K2G
4.29

Let us now turn to R33A
4.04

Let us now turn to V17H
4.4
